Test system: morningglory
Experiment: Test A pre-/postemergence greenhouse test
Type: in vivo, Ipomoea spp.
Conditions: Postemergence, 500 g ai/ha; 0 to 100 scale, 0 is no effect, 100 is complete control
Known Morningglory plant response rating of a selection of compounds
Please state the value as a number alone, without comment.

Below are worked cases with known answers.
CC(c1c(C(F)(F)F)nn(CC(F)(F)F)c1Cl)S(=O)(=O)c1ccc(Cl)c[n+]1[O-] (centres unmarked): 50
Cn1nc(C(F)(F)F)c(C[S+]([O-])c2cccc[n+]2[O-])c1OCC(F)(F)C(F)(F)F (centres unmarked): 60
Cn1nc(C(F)(F)F)c(C[S+]([O-])c2cccc[n+]2[O-])c1OCC(F)F (centres unmarked): 90

INPUT: Checklist item: Morningglory plant response rating tested on morningglory, entry Cn1nc(C(F)(F)F)c(C[S+]([O-])c2cc(F)cc[n+]2[O-])c1Cl (racemic) , value?
OUTPUT: 90

INPUT: Checklist item: Morningglory plant response rating tested on morningglory, entry Cn1nc(C(F)(F)F)c(C[S+]([O-])c2cc(Cl)cc[n+]2[O-])c1OCC(F)(F)F (centres unmarked) , value?
OUTPUT: 70

INPUT: Checklist item: Morningglory plant response rating tested on morningglory, entry CC(Oc1c(CS(=O)(=O)c2cccc[n+]2[O-])c(C(F)(F)F)nn1C)C(F)(F)F (centres unmarked) , value?
OUTPUT: 50
